- Tested on: murine melanoma cells B16-F1
- assay_protocol: Cell viability, tetrazolium reduction assay
- Type: cell-based
- reported_conditions: mouse, 48 h
- Method: All test compounds were initially dissolved in 100% DMSO at a concentration of 400 mM. […] Viability of cells was measured using standard tetrazolium reduction assay based on redox potential of live cells. […] After incubation, 20 μL of Aqueous One Solution were added to each well and the plate was returned to the incubator for 30 minutes. Conversion of tetrazolium was monitored by measuring absorbance of cell wells at 492 nm using a TECAN Genios plate reader. […]
property_measured: LD50, cell viability
The number alone won't do; follow it with the unit.

Entry CC(C)=CCCC(C)/C=C/c1ccc(O)cc1O (centres unmarked) [Compound 6] has what LD50, cell viability? 233 µM

# query: LD50, cell viability of entry CC(C)=CCCC(C)/C=C/c1cccnc1 (centres unmarked) [Compound 12] 385 µM

Fill in: LD50, cell viability of CC(C)=CCCC(C)/C=C/c1cc(O)cc(O)c1 (centres unmarked) [Compound 7] is ___ 152 µM

# query: LD50, cell viability of entry CC(C)=CCCC(C)/C=C/c1ccc2cc(O)ccc2c1 (centres unmarked) [Compound 8] 68 µM

Entry CC(C)=CCCC(C)=Cc1ccc(O)cc1 (mixture of isomers) [Compound 1] has what LD50, cell viability? 269 µM

----------
- Test system: murine melanoma cells B16-F1
- assay_protocol: Cell viability, tetrazolium reduction assay
- Assay type: cell-based
- reported_conditions: 48 hours; Tables 1-3
property_measured: CELL VIABILITY (µM)
Unit µM implied. Number only.

Return reported CELL VIABILITY; argument: CC(C)=CCCC(C)=Cc1ccc(O)cc1 (mixture of isomers) 269

Given the compound CC(C)=CCCC(C)/C=C/c1ccc(O)cc1O (stereo not shown) , what is its reported CELL VIABILITY? 233

For the compound CC(C)=CCCC(C)/C=C/c1cc(O)cc(O)c1 (stereo not shown) , what CELL VIABILITY is on record? 152

Item under review: CC(C)=CCCC(C)/C=C/c1cccnc1 (stereo not shown) . Reported CELL VIABILITY? 385

----------
- tested_on: 5-lipoxygenase from potato
- assay_protocol: Lipoxygenase Inhibition Assay
- reported_conditions: read-out: Anti-inflammatory (IC50) 5-LOX
For each record, write down the corresponding IC50.
The reply should contain only the number, in µM.

Which IC50 is reported with 5-lipoxygenase from potato for this entry: CC(C)=CCCC(C)/C=C/c1ccc(O)cc1O (stereo not drawn) ? 307

Enter reported IC50 observed with 5-lipoxygenase from potato for CC(C)=CCCC(C)=Cc1ccc(O)cc1 (mixture of isomers) 90

Checklist item: IC50 tested on 5-lipoxygenase from potato, entry CC(C)=CCCC(C)/C=C/c1cc(O)cc(O)c1 (stereo not drawn) , value? 143

IC50 of CC(C)=CCCC(C)C/C=C\c1cc(O)cc(O)c1 (stereo not drawn) on 5-lipoxygenase from potato? 90

Item CC(C)=CCCC(C)/C=C/c1ccc(O)cc1 (stereo not drawn) with 5-lipoxygenase from potato - IC50? 50

Which measured IC50 belongs to CC(C)=CCC/C(C)=C/c1cc(O)cc(O)c1 , tested on 5-lipoxygenase from potato? 317

----------
- tested_on: COX-2 (Homo sapiens)
- Construct: purchased Cayman Chemical 701050
- Sequence (P35354 18-604): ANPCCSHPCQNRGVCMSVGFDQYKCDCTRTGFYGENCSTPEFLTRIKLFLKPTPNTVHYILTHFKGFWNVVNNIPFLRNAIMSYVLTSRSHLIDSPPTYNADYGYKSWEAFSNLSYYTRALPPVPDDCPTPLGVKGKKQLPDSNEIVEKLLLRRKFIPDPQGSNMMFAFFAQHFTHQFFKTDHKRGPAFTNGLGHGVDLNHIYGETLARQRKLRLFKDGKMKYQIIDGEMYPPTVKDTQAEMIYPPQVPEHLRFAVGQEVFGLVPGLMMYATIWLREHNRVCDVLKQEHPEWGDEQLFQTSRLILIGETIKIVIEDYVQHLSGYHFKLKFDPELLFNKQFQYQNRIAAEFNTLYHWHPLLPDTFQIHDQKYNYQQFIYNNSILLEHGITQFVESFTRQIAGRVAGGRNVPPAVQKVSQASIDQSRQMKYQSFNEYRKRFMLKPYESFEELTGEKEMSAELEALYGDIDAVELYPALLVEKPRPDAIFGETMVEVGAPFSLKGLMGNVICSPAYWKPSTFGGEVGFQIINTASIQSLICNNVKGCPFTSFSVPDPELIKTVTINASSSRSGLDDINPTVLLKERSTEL
- assay_protocol: COX-2 enzymatic inhibition assay
- Assay type: biochemical
- reported_conditions: read-out: Anti-inflammatory (IC50) COX-2
property_measured: pIC50
Please express pIC50 as -log10 of the molar concentration.

Sample CC(C)=CCC/C(C)=C/c1cc(O)cc(O)c1 — what was its pIC50? 3.61

Which pIC50 reading was recorded for the compound CC(C)=CCCC(C)/C=C/c1cc(O)cc(O)c1 (stereo not drawn) ? 3.87

Record request: pIC50 value, item CC(C)=CCCC(C)/C=C/c1ccc(O)cc1O (stereo not drawn) 3.79
